Reported Kd values are given for each entry in this list.
Target: T1, Cynomolgus monkey cKIT D1-5 (cyno cKIT ECD, C-terminal 6x His) (cynomolgus monkey, UniProt P10721 25-520 (human entry))
T1 construct: The signal peptide is not part of the protein in the assay; The entry includes the C-terminal His tag; also called cynomolgus monkey ECD
T1 chain: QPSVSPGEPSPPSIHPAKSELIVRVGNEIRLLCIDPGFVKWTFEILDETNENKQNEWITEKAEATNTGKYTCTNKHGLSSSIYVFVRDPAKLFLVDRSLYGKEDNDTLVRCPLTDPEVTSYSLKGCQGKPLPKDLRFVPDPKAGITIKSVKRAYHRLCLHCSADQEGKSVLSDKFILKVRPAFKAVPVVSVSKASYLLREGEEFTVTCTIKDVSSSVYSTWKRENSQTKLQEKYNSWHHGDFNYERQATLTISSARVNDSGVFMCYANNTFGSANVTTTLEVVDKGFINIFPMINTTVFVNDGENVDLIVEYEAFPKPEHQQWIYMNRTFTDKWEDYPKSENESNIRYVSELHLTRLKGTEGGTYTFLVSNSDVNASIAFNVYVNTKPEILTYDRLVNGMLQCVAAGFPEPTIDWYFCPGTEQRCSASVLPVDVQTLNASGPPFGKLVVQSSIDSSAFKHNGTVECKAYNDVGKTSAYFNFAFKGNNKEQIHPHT
Test: SPR (Biacore 2000): antibody captured by anti-human Fc on CM5, cKIT ECD in solution, 25 C, 1:1 fit
experimental-endpoint: Kd (nM)

[[record]]
binder = "20376 (antibody, human IgG1, lambda, V domains shown) VH: QVQLVQSGAEVKKPGSSVKVSCKASGGTFSSYAISWVRQAPGQGLEWMGGIIPMSGRTTYAQKFQGRVTITADESTSTAYMELSSLRSEDTAVYYCARDYGPEAPDYGQSTSYFWYYAFDPWGQGTLVTVSS VL: DIELTQPPSVSVSPGQTASITCSGDNIPSYFVHWYQQKPGQAPVLVIYDDNDRPSGIPERFSGSNSGNTATLTISGTQAEDEADYYCSSWDQDTVVFGGGTKLTVLG"
value_unit = "nM"
readout_value = 4.8

[[record]]
binder = "NEG024 (antibody, human IgG1, kappa, V domains shown, Humanized, optimized variant of 9P3; human IgG1 kappa) VH: EVQLVESGGGLVQPGGSLRLSCAASGFTFSDYYMAWVRQAPGKGLEWVANINQIAGSTYYLDSVRGRFTISRDNAKNSLYLQMNSLRAEDTAVYYCARGDYYGTTYWYFDVWGQGTTVTVSS VL: EIVMTQSPATLSLSPGERATLSCRASQDISNYLNWYQQKPGQAPRLLIYYTSRLQSGIPARFSGSGSGTDYTLTISSLEPEDFAVYYCQQGKKLWSFGGGTKVEIKR"
value_unit = "nM"
readout_value = 1.15

[[record]]
binder = "20507 (antibody, human IgG1, kappa, V domains shown, HuCAL-derived human IgG1 kappa) VH: QVQLVQSGAEVKKPGSSVKVSCKASGGTFSSYAISWVRQAPGQGLEWMGTIGPFEGQPRYAQKFQGRVTITADESTSTAYMELSSLRSEDTAVYYCARGGYISDFDVWGQGTLVTVSS VL: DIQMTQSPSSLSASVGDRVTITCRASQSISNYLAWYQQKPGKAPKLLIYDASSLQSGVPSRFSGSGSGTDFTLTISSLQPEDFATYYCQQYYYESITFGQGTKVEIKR"
value_unit = "nM"
readout_value = 0.56

